System: Mycobacterium smegmatis ATCC 607
run-description: MIC on nutrient agar medium
Assay type: cell-based
cond: Mycolicibacterium smegmatis, ATCC607
assay-readout: MIC
Please don't drop the unit; write it after the number.

molecule	MIC
CC(=O)[C@]1(O)Cc2cc3c(c(O)c2[C@@H](O[C@H]2C[C@H](N)[C@H](O)[C@H](C)O2)C1)C(=O)c1ccccc1C3=O (single isomer, unassigned; isomer 4) [4-Demethoxy-11-deoxy-daunomycin (7S,9S,1'α)isomer, 4-Demethoxy-11-deoxydaunomycin]	12.5 µg/mL
C[C@@H]1O[C@@H](O[C@H]2C[C@](O)(C(=O)CO)Cc3cc4c(c(O)c32)C(=O)c2ccccc2C4=O)C[C@H](N)[C@@H]1O (single isomer, unassigned; isomer 4) [4-Demethoxy-11-deoxy-adriamycin (7S,9S,1'α)isomer, 4-Demethoxy-11-deoxyadriamycin]	12.5 µg/mL
C[C@@H]1O[C@@H](O[C@@H]2C[C@@](O)(C(=O)CO)Cc3cc4c(c(O)c32)C(=O)c2ccccc2C4=O)C[C@H](N)[C@@H]1O (single isomer, unassigned; isomer 4) [4-Demethoxy-11-deoxy-adriamycin (7R,9R,1'α)isomer, 4-Demethoxy-11-deoxyadriamycin]	100 µg/mL

Q. Need MIC of CC(=O)[C@@]1(O)Cc2cc3c(c(O)c2[C@H](O[C@H]2C[C@H](N)[C@H](O)[C@H](C)O2)C1)C(=O)c1ccccc1C3=O (single isomer, unassigned; isomer 4) [4-Demethoxy-11-deoxy-daunomycin (7R,9R,1'α)isomer, 4-Demethoxy-11-deoxydaunomycin] , thanks.
A. 100 µg/mL
